Just for reference, the OPERA property sets (Mansouri et al. 2018) is where these values come from.

# logP values compiled below

{"molecule": "Clc1cc(Cl)cc(-c2cc(Cl)cc(Cl)c2)c1", "logP": 6.6}
{"molecule": "O=C(CCN1CCCCC1)CN1C(=O)CC(c2ccc(Cl)cc2)C1=O (stereo not given)", "logP": 2.23}
{"molecule": "Cc1[nH]cnc1CSCCNc1[nH]ccc1[N+](=O)[O-]", "logP": 1.04}
{"molecule": "O=C1c2ccccc2C(=O)C1c1cccc(Cl)c1", "logP": 3.61}
{"molecule": "COC(=O)c1cc(=O)[nH]c(=O)[nH]1", "logP": 0.63}
{"molecule": "CC(=O)Nc1nc(NC(O)CC(O)CO)c(Cl)nc1[N+](=O)[O-] (stereo not given)", "logP": -0.66}
{"molecule": "CC(=O)Nc1ccc(Cl)cc1", "logP": 2.09}
{"molecule": "O=c1[nH]cc(F)c(=O)n1Oc1ccccc1", "logP": 0.8}
{"molecule": "OC(Cn1ccnc1)(c1ccc(F)cc1)c1ccc(F)cc1", "logP": 2.95}
{"molecule": "CNc1cnn(-c2ccccc2)c(=O)c1Cl", "logP": 1.19}
{"molecule": "Nc1ccn(C2OC(CO)CC2F)c(=O)n1 (stereo not given)", "logP": -1.18}
{"molecule": "CCC1(c2ccccc2)NC(=O)N(C)C1=O (stereo not given)", "logP": 1.69}
{"molecule": "NC(=S)NNC(=O)c1ccc2c(c1)OCO2", "logP": 0.21}
{"molecule": "O=C(OCn1c(=O)[nH]cc(F)c1=O)Oc1ccccc1", "logP": 1.11}
{"molecule": "CCCOC(=O)n1c(NC(=O)OC)nc2cc(C(=O)c3ccccc3)ccc21", "logP": 3.43}
{"molecule": "C=CC12COC(=O)C(=C)C1C1OC(=O)C(=C)C1C(OC(=O)C(=C)C)C2 (stereo not given)", "logP": 1.56}
{"molecule": "Oc1cc(Cl)c(Cl)c(Cl)c1O", "logP": 3.71}
{"molecule": "O=C(O)c1cc([N+](=O)[O-])cc([N+](=O)[O-])c1O", "logP": 1.71}
{"molecule": "CCOP(=O)(OCC)SCS(=O)(=O)C(C)(C)C", "logP": 2.76}
{"molecule": "Cc1cc(O)ccc1O", "logP": 0.91}
{"molecule": "O=CNCC#CCC(NC(=O)C(Cc1ccc2ccccc2c1)Cc1cccc2ccccc12)C(=O)NC(CC1CCCCC1)C(O)CC(=O)NCCN1CCOCC1 (stereo not given)", "logP": 5.44}
{"molecule": "COC(=O)C1=C(C)NC(C)=C(C(=O)OC(C)C)C1c1cccc2nonc12 (stereo not given)", "logP": 4.28}
{"molecule": "COCC(C)n1ccc(=O)c(O)c1C (stereo not given)", "logP": -0.26}
{"molecule": "O=C1C[N+]([O-])=C(c2ccccc2)c2cc(Cl)ccc2N1CCO", "logP": 0.82}
{"molecule": "Nc1ccc(C(=O)O)cc1I", "logP": 2.36}

---

The entries below are paired with their reported logD.
- condition.set: pH 7.4
value.kind: logD

{"record.smiles": "Cn1c(=O)c2[nH]c(Cl)nc2n(C)c1=O", "measurement": -0.85}
{"record.smiles": "COc1ccc2c3c1O[C@H]1[C@@H](O)C=C[C@H]4[C@@H](C2)N(C)CC[C@@]341.O=P(O)(O)O", "measurement": -1.4}

---

Tick criterion met if logP is 3 or greater. Tick criterion not met if logP is less than 3.

{"compound": "CCCCC(=O)OC[C@H]1O[C@@H](n2cc(I)c(=O)[nH]c2=O)C[C@@H]1O", "group.label": "criterion not met"}
{"compound": "NS(=O)(=O)c1ccc(Cl)cc1", "group.label": "criterion not met"}
{"compound": "Nc1ccc(Cl)c(Cl)c1Cl", "group.label": "criterion met"}
{"compound": "COC(=O)NC1=NCC(c2ccccc2)N1C (configuration not stated)", "group.label": "criterion not met"}
{"compound": "Nc1cc(Cl)c(Cl)cc1Cl", "group.label": "criterion met"}
{"compound": "ClC(Br)Br", "group.label": "criterion not met"}
{"compound": "CCC1(CC)C(=O)NCC(C)C1=O (configuration not stated)", "group.label": "criterion not met"}
{"compound": "Cc1onc(-c2ccccc2Cl)c1C(=O)NC1C(=O)N2C1SC(C)(C)C2C(=O)O (configuration not stated)", "group.label": "criterion not met"}
{"compound": "Cc1c(O)c(=O)ccn1CCCCO", "group.label": "criterion not met"}
{"compound": "c1cc(CN2CCCCC2)cc(OCCCNc2nc3ccccc3s2)c1", "group.label": "criterion met"}
{"compound": "O=[N+]([O-])c1ccc(Oc2ccc(Cl)cc2Cl)cc1", "group.label": "criterion met"}
{"compound": "COc1ncnc(NS(=O)(=O)c2ccc(N)cc2)c1OC", "group.label": "criterion not met"}
{"compound": "Oc1c(Cl)cc(Cl)c(Cl)c1O", "group.label": "criterion met"}
{"compound": "CC(=O)C1CCC2C3CC(C)C4=CC(=O)CCC4(C)C3C(=O)CC12C (configuration not stated)", "group.label": "criterion not met"}
{"compound": "CN(c1ccccc1)S(C)(=O)=O", "group.label": "criterion not met"}
{"compound": "CNC(=C[N+](=O)[O-])NCCSCc1nc[nH]c1C", "group.label": "criterion not met"}
{"compound": "O=C(O)CCCOc1cccc2ccccc12", "group.label": "criterion met"}
{"compound": "CN(Cc1ccccc1)C(=O)C(Cc1ccccc1)NC(=O)C(Cc1cn(C(=O)OC(C)(C)C)c2ccccc12)NC(=O)CC1NC(=O)C2C3CCC(CC3)N2C1=O (configuration not stated)", "group.label": "criterion met"}
{"compound": "CCc1c(O)c(=O)ccn1CCOC", "group.label": "criterion not met"}
{"compound": "O=c1c2ccccc2nc2n1CCCC2", "group.label": "criterion not met"}
{"compound": "CCCCCn1ccc(=O)c(O)c1C", "group.label": "criterion not met"}
{"compound": "COc1cccc(C2C(=O)c3ccccc3C2=O)c1", "group.label": "criterion not met"}
{"compound": "NCc1ccccc1Sc1ccccc1CO", "group.label": "criterion not met"}
{"compound": "Cc1ccc2nc3c(c(=O)n2c1)CCC3", "group.label": "criterion not met"}
{"compound": "O=C(O)COc1ccccc1[N+](=O)[O-]", "group.label": "criterion not met"}
{"compound": "CC(=O)NC1=NC(=O)C(=Cc2ccc([N+](=O)[O-])o2)S1", "group.label": "criterion not met"}
{"compound": "COc1ccc(OCC(OC(=O)n2ccnc2)C(C)(C)C)cc1 (configuration not stated)", "group.label": "criterion met"}

---

In this section, each of the compounds is paired with its reported logP.

{"compound": "Nc1nc(NCC(O)CO)c(Cl)nc1[N+](=O)[O-] (configuration not stated)", "logP": -0.22}
{"compound": "CON1C(=O)CC2(CCCC2)C1=O", "logP": 1.15}
{"compound": "CCCN(C)C(=O)c1cccc(Oc2ccccc2)c1", "logP": 3.44}
{"compound": "Nc1ccc(C(=O)O)c(O)c1", "logP": 0.89}
{"compound": "CCNC(=O)NCCCn1nc(-c2ccccc2)ccc1=O", "logP": 1.68}
{"compound": "NS(=O)(=O)c1cc2c(cc1Cl)NC(C(F)(F)F)NS2(=O)=O (configuration not stated)", "logP": 0.49}
{"compound": "C[N+](C)(C)CC1CSCO1.[I-] (configuration not stated)", "logP": -2.7}
{"compound": "NS(=O)(=O)c1cc2c(cc1F)N=CNS2(=O)=O", "logP": -0.29}
{"compound": "CCOCCCn1ccc(=O)c(O)c1C", "logP": 0.12}
{"compound": "CCCOc1ccc(OCC(OC(=S)n2ccnc2)C(C)(C)C)cc1 (configuration not stated)", "logP": 5.03}
{"compound": "CC1CCCc2ncc(C(N)=O)c(=O)n21 (configuration not stated)", "logP": 0.04}
{"compound": "CCCCC(CC)C(=O)N1c2ccc(C)cc2C2CN(C)CCC21 (configuration not stated)", "logP": 4.14}
{"compound": "CC1=C(C)C(=O)C(Cc2cccnc2)=C(C)C1=O", "logP": 2.55}
{"compound": "Clc1cccc(-c2cc(Cl)cc(Cl)c2)c1", "logP": 5.81}
{"compound": "Cc1ccc(C)c(C(=O)NS(=O)(=O)c2ccc(N)cc2)c1", "logP": 2.19}
{"compound": "COc1c(O)ccc(O)c1OC", "logP": 0.61}
{"compound": "Clc1ccc(C(c2ccc(Cl)cc2)C(Cl)Cl)cc1", "logP": 6.02}
{"compound": "O=C1COC(=O)N1c1ccccc1", "logP": 0.93}
{"compound": "CCOc1ccc(OCC(OC(=O)n2ccnc2)C(C)(C)C)cc1 (configuration not stated)", "logP": 3.86}
{"compound": "COc1c(Cl)cc(Cl)c(O)c1C(=O)NCC1CCCN1CCF (configuration not stated)", "logP": 3.66}
{"compound": "CNC(=S)NCCCCc1nc[nH]c1C", "logP": 0.85}
{"compound": "NC(=S)c1ccc(Cl)cc1", "logP": 2.4}
{"compound": "CC(C)CC1NC(=O)NC1=O (configuration not stated)", "logP": 0.35}
{"compound": "CC(C)(C)C(=O)OCC1OC(n2cc(I)c(=O)[nH]c2=O)CC1O (configuration not stated)", "logP": 1.34}
{"compound": "CC[C@H](C)C(=O)O[C@H]1CCC=C2C=C[C@H](C)[C@H](CC[C@@H]3C[C@@H](O)CC(=O)O3)[C@H]21", "logP": 3.95}
{"compound": "CN(Cc1cccc(Br)c1)N=O", "logP": 1.65}
{"compound": "CC(C)c1ncc([N+](=O)[O-])[nH]1", "logP": 0.9}
